Data origin, for the record: PubChem BioAssay (NCI)

Tested on: NCI-H322M lung
Experiment: NCI-60 one-dose screen, 48 h (100 = growth as untreated, 0 = no growth, -100 = all killed)
Conditions: 10 µM unless noted
Procedure: Growth inhibition of the NCI-H322M human Non-Small Cell Lung tumor cell line is measured as a screen for anti-cancer activity. Cells are grown in 96 well plates and exposed to the test compound for 48 hours. Compounds are tested at a single concentration, which is 10^-5 M for most compounds. The reported endpoint is percent growth (GI% or GIPRCNT), where numbers from 0 - 100% represent growth inhibition, and numbers from -100% - 0 represent cell death. […]
The panel holds about 83,000 compounds, 20% with a hit somewhere; the sample as a whole holds those more often.
We label by threshold. Values of growth strictly beneath 60% are MET. Values of 60% and up are NOT MET.

Solved cases below.
compound	classification
CC(C)c1ccc(NC(=O)Nc2ccc(NC(=O)c3ccccc3N)cc2)cc1	MET
CC12CCC(/C(=C/NNc3ccc([N+](=O)[O-])cc3[N+](=O)[O-])C1=O)C2(C)C (stereo not drawn)	NOT MET
COc1ccc(-c2oc(=O)ccc2-c2cc(OC)c(OC)c(OC)c2)cc1O	MET

Problem: Does CS(=O)(=O)Nc1cncc(-c2ccc3ncnc(Nc4ccc(F)c(Cl)c4)c3c2)c1 have growth strictly under 60%?
Solution: MET

Problem: How about CCOC(=O)c1c(-c2ccc(Cl)cc2)c(C#N)c2c(C#N)c(N)nn2c1N ?
Solution: NOT MET

Problem: Moving on to C=C(CO)[C@@H]1CC[C@]2(COC3CCCCO3)CC[C@]3(C)[C@H](CC[C@@H]4[C@@]5(C)C=C(C=O)C(=O)C(C)(C)[C@@H]5CC[C@]43C)[C@@H]12 (stereo partly drawn)
Solution: MET

Problem: Repeat for the following compound: CC/C(Cc1ccccc1)=C(\c1ccc(OCCN2CCCCCC2)cc1)c1ccc(OC(=O)NCc2ccccc2)cc1
Solution: NOT MET

Problem: Now try CC1O[C@@H]2C[C@@](O)([C@H]1O)n1c3ccccc3c3c4c(c5c6ccccc6n2c5c31)C(=O)NC4=O (stereo partly drawn) .
Solution: NOT MET

---

System: RPMI-8226 leukemia
Assay: NCI-60 one-dose screen, 48 h
Conditions: 10 µM unless noted
Compounds without any hit were thinned out: in the full panel of roughly 83,000, 20% have a hit. Calls of active or inactive are those of the source. The calls were made as follows: active = growth percent below 10; inactive = the rest.
Choose one outcome from this list and give only that: active, inactive

Example cases with answers are listed next.
compound	system-under-test	classification
O=C1CCCc2nc3sc4c(=O)n(-c5ccccc5Cl)nnc4c3cc21	RPMI-8226 leukemia	inactive
CCCCSCC(=O)c1ccccc1	RPMI-8226 leukemia	inactive
CN1CCN(c2ccc(NC(=O)c3cncnc3Nc3ccc4c(ccn4Cc4cccc(F)c4)c3)cc2)CC1	RPMI-8226 leukemia	inactive

Below: the item to evaluate.
Problem: For this compound, state the assay outcome: CC(C)CCSc1nc(Nc2ccccc2)c(C#N)c(-c2ccccc2)n1
Solution: inactive

---

Tested on: UACC-62 melanoma
Assay: NCI-60 one-dose screen, 48 h
Details: 10 µM unless noted
The panel holds about 83,000 compounds, 20% with a hit somewhere; the sample as a whole holds those more often. Activity calls are given as the source filed them. Rule for the calls: active = growth percent below 10; inactive = the rest.
Choose the fitting class; nothing outside active, inactive is accepted.

compound	classification
CS(=O)(=O)Nc1cc(-c2ccc3ncnc(Nc4ccc5c(cnn5Cc5cccnc5)c4)c3c2)cnc1Cl	inactive
CC(C)c1ccc(-n2c(=S)[nH]c3sc4c(c3c2=O)CCC(=O)C4)cc1	inactive
COc1cccc(/C=C2\COc3ccc(O)cc3C2=O)c1	inactive
CN(Cc1cnc2nc(N)nc(N)c2n1)c1c(Cl)cc(C(=O)NC(CCC(=O)O)C(=O)O)cc1Cl (centres undefined)	inactive
CNC(=O)c1c(NC(=O)c2ccc(C(C)(C)C)cc2)sc2c(CN(C)C)c(O)ccc12	active
O=C(O)c1cn(C2CC2)c2cc(N3CCN(C(=O)N/N=C/c4ccccc4)CC3)c(F)cc2c1=O	inactive

Problem: Per the assay record, what outcome was assigned to O=C(CCCCNC(=O)c1cc(=O)c(O)co1)Nc1ccccc1 ?
Solution: inactive

Problem: Likewise for Nc1nc(C(=O)N/N=C/c2ccc(N3CCOCC3)cc2)nn1-c1ccc(S(N)(=O)=O)cc1 ?
Solution: inactive

Problem: Param item: COc1ccc(C2CC(c3ccc4c(c3)OCO4)=Nc3c(N)ncnc3N2)cc1 (centres undefined)
Solution: inactive
